- Method Description: Lipid nanoparticle size and polydispersity index by dynamic light scattering (Malvern Zetasizer)
- Assay type: physicochemical
- Measurement Parameters: hEPO mRNA LNP, Process A, Cationic Lipid:DMG-PEG2000:Cholesterol:DOPE 40:1.5:28.5:30 mol %, N/P 4
Reported Size (nm) by item:
Result Type: Size (nm)

Compound | Test Value
CCCCCCCCCCCCCCC(O)CN(CCCC(=O)O[C@@H]1CO[C@H]2[C@@H]1OC[C@H]2OC(=O)CCCCN(CC(O)CCCCCCCCCC)CC(O)CCCCCCCCCC)CC(O)CCCCCCCCCCCCCC (stereo partly drawn) | 91
CCCCCCCCCCC(O)CN(CCCC(=O)O[C@@H]1CO[C@H]2[C@@H]1OC[C@H]2OC(=O)CCCN(CC(O)CCCCCC(=O)OC(CCCCCCCC)CCCCCCCC)CC1CCCC(=O)O1)CC(O)CCCCCCCCCC (stereo partly drawn) | 94
CCCCCCCCCCCCCCC(O)CN(CCCC(=O)O[C@@H]1CO[C@H]2[C@@H]1OC[C@H]2OC(=O)CCCN(CC(O)CCCCCCCCCCCCCC)CC(O)CCCCCCCCCCCCCC)CC(O)CCCCCCCCCCCCCC (stereo partly drawn) | 114
CCCCCCCCCCC(O)CN(CCCCC(=O)O[C@@H]1CO[C@H]2[C@@H]1OC[C@@H]2OC(=O)CCCN(CC(O)CCCCCCCCCC)CC(O)CCCCCCCCCC)CC(O)CCCCCCCCCC (stereo partly drawn) | 81
CCCCCCCCC(O)CN(CCCC(=O)O[C@H]1CO[C@H]2[C@@H]1OC[C@H]2OC(=O)CCCN(CC(O)CCCCCCCC)CC(O)CCCCCCCC)CC(O)CCCCCCCC (stereo partly drawn) | 95
CCCCCCCCCCCOC(=O)CCCC(O)CN(CCCC(=O)O[C@H]1CO[C@H]2[C@@H]1OC[C@H]2OC(=O)CCCN(CC(O)CCCCCC(=O)OC(CCCCCCCC)CCCCCCCC)CC(O)CCCC(=O)OCCCCCCCCCCC)CC(O)CCCCCC(=O)OC(CCCCCCCC)CCCCCCCC (stereo partly drawn) | 109
